- Tested on: CP185
- assayOverview: qHTS profiling for inhibitors of Plasmodium falciparum proliferation (AID 504749); note: nearly all actives have a fitted effect of over 60% in size; note: potency is the fitted concentration of half-maximal effect
- testConditions: P. falciparum in erythrocytes, SYBR Green DNA, 72 h; series mostly up to 28.7 µM
Inconclusive results are not listed. The source made the active and inactive calls. Calls come from the whole dose curve; as a rule, active = well fitted inhibition curve with a large enough effect; inconclusive = small, poorly fitted or top-dose-only effect; inactive = flat fitted curve, though single readings scatter.
endpointLabel: Potency

structureSmiles | measuredOn | result
Cc1ccc(S(=O)(=O)NC(=O)NN2CCCCCC2)cc1 | CP185 | inactive
NC/C=C/C(=O)O | CP185 | inactive
O=C(O)CN(CCOCCOCCN(CC(=O)O)CC(=O)O)CC(=O)O | CP185 | inactive
C[N+](C)(C)CCOC(=O)CCC(=O)OCC[N+](C)(C)C | CP185 | inactive
C[C@H](CS)C(=O)N1CCC[C@H]1C(=O)O | CP185 | inactive
CCN(CC)CCNC(=O)c1ccc(NC(C)=O)cc1 | CP185 | inactive
CCCCCCCC/C=C\CCCCCCCC(=O)NCc1ccc(O)c(OC)c1 | CP185 | 11.2 µM (active)
CC(=O)[C@]1(O)Cc2c(O)c3c(c(O)c2[C@@H](O[C@H]2C[C@H](N)[C@H](O)[C@H](C)O2)C1)C(=O)c1ccccc1C3=O | CP185 | 11.2 µM (active)
COCC(=O)O[C@]1(CCN(C)CCCc2nc3ccccc3[nH]2)CCc2cc(F)ccc2[C@@H]1C(C)C | CP185 | 4.47 µM (active)
CCO/C([O-])=N/c1c[n+](N2CCOCC2)no1 | CP185 | inactive
